Ref: ChEMBL document CHEMBL3769336

target: Transcription intermediary factor 1-alpha (Homo sapiens, UniProt O15164); test: Inhibition of N-terminal His6-SUMO-1-tagged recombinant human TRIM24 bromodomain expressed in Escherichia coli BL21(DE3)-R3-pRARE2 cells by Alpha Screen assay
Sequence (O15164 whole entry): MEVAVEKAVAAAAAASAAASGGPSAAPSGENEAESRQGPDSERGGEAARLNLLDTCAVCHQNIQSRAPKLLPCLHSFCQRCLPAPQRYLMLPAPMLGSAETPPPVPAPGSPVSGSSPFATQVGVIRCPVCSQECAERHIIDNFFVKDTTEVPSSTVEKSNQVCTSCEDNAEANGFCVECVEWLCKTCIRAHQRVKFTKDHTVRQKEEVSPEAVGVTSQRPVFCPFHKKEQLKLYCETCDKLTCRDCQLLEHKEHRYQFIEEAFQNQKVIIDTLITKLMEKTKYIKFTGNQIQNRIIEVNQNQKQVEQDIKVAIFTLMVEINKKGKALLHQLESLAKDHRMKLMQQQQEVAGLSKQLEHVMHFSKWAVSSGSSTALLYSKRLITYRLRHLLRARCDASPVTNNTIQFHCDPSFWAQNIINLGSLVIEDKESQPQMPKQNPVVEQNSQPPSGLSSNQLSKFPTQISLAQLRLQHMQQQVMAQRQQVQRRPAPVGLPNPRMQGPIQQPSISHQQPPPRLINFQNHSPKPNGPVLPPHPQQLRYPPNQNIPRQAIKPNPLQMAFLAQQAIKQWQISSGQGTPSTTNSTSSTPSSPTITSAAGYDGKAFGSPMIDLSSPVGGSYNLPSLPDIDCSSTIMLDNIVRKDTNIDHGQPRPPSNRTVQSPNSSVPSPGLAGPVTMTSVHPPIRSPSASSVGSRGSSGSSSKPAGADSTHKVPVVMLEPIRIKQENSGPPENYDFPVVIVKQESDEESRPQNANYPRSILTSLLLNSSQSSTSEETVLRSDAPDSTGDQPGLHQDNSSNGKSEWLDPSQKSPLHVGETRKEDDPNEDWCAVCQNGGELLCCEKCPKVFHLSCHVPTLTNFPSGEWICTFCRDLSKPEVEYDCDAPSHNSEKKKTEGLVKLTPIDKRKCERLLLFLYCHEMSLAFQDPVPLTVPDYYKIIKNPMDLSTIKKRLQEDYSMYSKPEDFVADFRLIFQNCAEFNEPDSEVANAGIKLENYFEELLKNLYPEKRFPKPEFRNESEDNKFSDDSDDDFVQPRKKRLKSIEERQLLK
MEASURED_METRIC: IC50 (µM)

Illustrative cases are given below, each with its answer.
# CHEMICAL_SMILES, UNIT_TEXT, IC50
rows = [
    ("Cc1ccc(S(=O)(=O)Nc2cc3c(cc2Oc2ccccc2)n(C)c(=O)n3C)cc1C", "µM", 4.77),
    ("Cn1c(=O)n(C)c2cc(NS(=O)(=O)c3ccc4c(c3)CCCC4)ccc21", "µM", 6.17),
]

(I) COc1ccc(Oc2cc3c(cc2NS(=O)(=O)c2ccc(OC)cc2)n(C)c(=O)n3C)cc1
(II) CCCOc1ccc(S(=O)(=O)Nc2cc3c(cc2Oc2ccc(OC)cc2)n(C)c(=O)n3C)cc1
Out of I and II , name the one with the higher IC50. To answer, give the label that identifies your chosen option. II
(II: 8.4 µM, I: 0.77 µM)

---

pIC50: −log10 of the molar value.
Entries with reported pIC50 on Peregrin (Homo sapiens, UniProt P55201)
Sequence (P55201 whole entry): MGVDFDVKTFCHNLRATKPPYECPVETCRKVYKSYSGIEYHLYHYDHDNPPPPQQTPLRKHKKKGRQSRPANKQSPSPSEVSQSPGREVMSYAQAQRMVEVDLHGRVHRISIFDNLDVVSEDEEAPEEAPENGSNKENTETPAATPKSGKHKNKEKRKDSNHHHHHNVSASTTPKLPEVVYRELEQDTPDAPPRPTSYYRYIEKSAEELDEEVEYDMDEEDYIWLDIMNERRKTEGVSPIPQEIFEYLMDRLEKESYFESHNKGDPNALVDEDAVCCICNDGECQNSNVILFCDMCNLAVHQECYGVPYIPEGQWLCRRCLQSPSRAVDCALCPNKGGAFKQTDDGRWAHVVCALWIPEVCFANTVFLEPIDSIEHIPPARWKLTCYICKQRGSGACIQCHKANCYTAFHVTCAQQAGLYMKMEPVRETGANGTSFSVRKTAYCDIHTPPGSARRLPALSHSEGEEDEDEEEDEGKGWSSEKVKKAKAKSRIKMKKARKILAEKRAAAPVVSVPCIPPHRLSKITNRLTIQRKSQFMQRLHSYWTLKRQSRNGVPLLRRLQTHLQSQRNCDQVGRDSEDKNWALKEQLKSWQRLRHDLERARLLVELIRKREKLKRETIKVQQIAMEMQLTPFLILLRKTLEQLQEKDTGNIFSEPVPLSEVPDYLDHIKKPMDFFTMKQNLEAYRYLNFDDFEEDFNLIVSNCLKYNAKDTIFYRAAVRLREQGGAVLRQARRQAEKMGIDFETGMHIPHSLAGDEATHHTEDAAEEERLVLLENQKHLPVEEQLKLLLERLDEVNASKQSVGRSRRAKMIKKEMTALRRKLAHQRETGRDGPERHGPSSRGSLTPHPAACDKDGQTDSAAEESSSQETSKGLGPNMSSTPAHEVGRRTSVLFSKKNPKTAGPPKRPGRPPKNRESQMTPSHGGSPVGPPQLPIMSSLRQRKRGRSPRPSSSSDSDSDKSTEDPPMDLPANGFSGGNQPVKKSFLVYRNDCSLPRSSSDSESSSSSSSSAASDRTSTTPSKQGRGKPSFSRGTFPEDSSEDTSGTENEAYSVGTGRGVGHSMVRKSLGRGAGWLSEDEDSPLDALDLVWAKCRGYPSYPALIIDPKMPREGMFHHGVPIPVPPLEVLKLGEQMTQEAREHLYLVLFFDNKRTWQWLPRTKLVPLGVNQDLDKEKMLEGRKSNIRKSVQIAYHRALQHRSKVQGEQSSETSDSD
MEASURED_METRIC: pIC50

# CHEMICAL_SMILES, TEST_RESULT
rows = [
    ("COc1ccc(Oc2cc3c(cc2NS(=O)(=O)c2ccc(C)cc2)n(C)c(=O)n3C)cc1", 5.65),
    ("Cc1ccc(S(=O)(=O)Nc2cc3c(cc2Oc2ccccc2)n(C)c(=O)n3C)cc1C", 5.51),
    ("Cn1c(=O)n(C)c2cc(NS(=O)(=O)c3ccc4c(c3)CCCO4)ccc21", 6.57),
    ("COc1ccc(Oc2cc3c(cc2NS(=O)(=O)c2ccc(OC)cc2)n(C)c(=O)n3C)cc1", 6.18),
]

(P) COc1ccc(S(=O)(=O)Nc2cc3c(cc2Oc2ccccc2)n(C)c(=O)n3C)cc1
(Q) Cc1ccc(S(=O)(=O)Nc2ccc3c(c2)n(C)c(=O)n3C)cc1F
Dear colleague, could you let me know whether P or Q has the lower recorded pIC50? Thanks. To answer, give the label that identifies your chosen option. Q

(P) Cn1c(=O)n(C)c2cc(Oc3ccccc3)c(NS(=O)(=O)c3ccc(Cl)cc3)cc21
(Q) COc1cccc(S(=O)(=O)Nc2cc3c(cc2Oc2ccccc2)n(C)c(=O)n3C)c1
Out of P and Q , name the one with the higher pIC50. To answer, give the label that identifies your chosen option. P
(P: 6.57, Q: 6.37)

(1) Cn1c(=O)n(C)c2cc(NS(=O)(=O)c3ccc4c(c3)CCC4)ccc21
(2) Cc1ccc(F)cc1S(=O)(=O)Nc1cc2c(cc1Oc1ccccc1)n(C)c(=O)n2C
Out of 1 and 2 , name the one with the higher pIC50. To answer, give the label that identifies your chosen option. 1

---

target: Bromodomain-containing protein 1 (Homo sapiens, UniProt O95696); test: Inhibition of BRPF2 BRD1 (unknown origin) by Alpha Screen assay
MEASURED_METRIC: IC50 (nM)

# CHEMICAL_SMILES, TEST_RESULT
records = [
    ("Cc1ccc(S(=O)(=O)Nc2cc3c(cc2Oc2ccccc2)n(C)c(=O)n3C)cc1", 2920),
    ("Cn1c(=O)n(C)c2cc(NS(=O)(=O)c3ccc4c(c3)CCCO4)ccc21", 1600),
    ("Cn1c(=O)n(C)c2cc(Oc3ccccc3)c(NS(=O)(=O)c3ccc(Cl)cc3)cc21", 3470),
]

(a) Cc1ccccc1S(=O)(=O)Nc1cc2c(cc1Oc1ccccc1)n(C)c(=O)n2C
(b) Cc1ccc(S(=O)(=O)Nc2cc3c(cc2Oc2ccccc2)n(C)c(=O)n3C)cc1C
(c) Cn1c(=O)n(C)c2cc(Oc3ccccc3)c(NS(=O)(=O)c3ccc4c(c3)CCCC4)cc21
Order the records so the highest IC50 appears first and the lowest last. Write the labels in rank order as requested. b, c, a
(b: 5160 nM, c: 2670 nM, a: 1700 nM)

---

target: Transcription intermediary factor 1-alpha (Homo sapiens, UniProt O15164); experiment: Binding affinity to N-terminal His6-SUMO-1-tagged recombinant human TRIM24 bromodomain expressed in Escherichia coli BL21(DE3)-R3-pRARE2 cells by isothermal titration calorimetry
MEASURED_METRIC: Kd (nM)
Provide the reading as a plain figure in nM.

State its Kd on Transcription intermediary factor 1-alpha (Homo sapiens, UniProt O15164): "COc1ccc(Oc2cc3c(cc2NS(=O)(=O)c2ccc(OC)c(OC)c2)n(C)c(=O)n3C)cc1" 222

---

molecular target: Transcription intermediary factor 1-alpha (Homo sapiens, UniProt O15164); test: Inhibition of N-terminal His6-SUMO-1-tagged recombinant human TRIM24 bromodomain expressed in Escherichia coli BL21(DE3)-R3-pRARE2 cells by Alpha Screen assay
MEASURED_METRIC: IC50

# COMPOUND, IC50
measured = [
    ("COC1(C)Oc2cc(S(=O)(=O)Nc3ccc4c(c3)n(C)c(=O)n4C)ccc2O[C@]1(C)OC (stereo partly drawn)", "> 10 µM"),
]

Tell me the measured IC50 of "Cc1ccc(S(=O)(=O)Nc2ccc3c(c2)n(C)c(=O)n3C)cc1F" , please. > 10 µM

Tell me the measured IC50 of "Cc1cc(Cl)ccc1S(=O)(=O)Nc1cc2c(cc1Oc1ccccc1)n(C)c(=O)n2C" , please. 2.45 µM

---

Molecular target: Bromodomain-containing protein 1 (Homo sapiens, UniProt O95696)
Sequence (O95696 whole entry): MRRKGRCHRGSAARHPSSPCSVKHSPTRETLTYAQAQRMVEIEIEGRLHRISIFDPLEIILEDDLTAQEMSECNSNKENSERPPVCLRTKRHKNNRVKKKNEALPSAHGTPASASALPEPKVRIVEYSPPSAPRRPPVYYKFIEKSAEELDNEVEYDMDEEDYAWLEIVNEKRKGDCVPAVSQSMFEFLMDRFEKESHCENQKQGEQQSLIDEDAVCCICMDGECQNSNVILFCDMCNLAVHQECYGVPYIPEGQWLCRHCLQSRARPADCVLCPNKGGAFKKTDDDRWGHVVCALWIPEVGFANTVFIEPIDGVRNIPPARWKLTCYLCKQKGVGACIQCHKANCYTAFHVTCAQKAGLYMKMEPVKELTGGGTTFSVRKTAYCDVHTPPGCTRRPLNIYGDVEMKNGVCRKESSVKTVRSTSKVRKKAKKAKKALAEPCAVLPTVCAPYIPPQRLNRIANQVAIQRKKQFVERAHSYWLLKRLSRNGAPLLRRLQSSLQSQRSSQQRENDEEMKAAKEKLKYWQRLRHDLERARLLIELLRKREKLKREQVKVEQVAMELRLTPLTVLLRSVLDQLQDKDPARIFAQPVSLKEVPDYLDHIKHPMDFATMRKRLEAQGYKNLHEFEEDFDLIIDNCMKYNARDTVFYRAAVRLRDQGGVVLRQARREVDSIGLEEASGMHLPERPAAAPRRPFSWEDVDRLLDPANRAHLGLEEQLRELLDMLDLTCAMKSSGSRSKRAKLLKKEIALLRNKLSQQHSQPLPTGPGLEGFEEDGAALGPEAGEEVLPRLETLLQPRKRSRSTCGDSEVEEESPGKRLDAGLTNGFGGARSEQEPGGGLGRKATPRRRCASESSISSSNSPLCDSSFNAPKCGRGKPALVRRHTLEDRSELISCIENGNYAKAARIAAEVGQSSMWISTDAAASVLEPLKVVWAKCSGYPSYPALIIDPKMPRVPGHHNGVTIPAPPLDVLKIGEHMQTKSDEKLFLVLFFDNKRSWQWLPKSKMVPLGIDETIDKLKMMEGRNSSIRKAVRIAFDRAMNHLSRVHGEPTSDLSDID
Assay: Inhibition of BRPF2 BRD1 (unknown origin) by Alpha Screen assay
MEASURED_METRIC: IC50

# MOLECULE, IC50
data = [
    ("CCCOc1ccc(S(=O)(=O)Nc2cc3c(cc2Oc2ccc(OC)cc2)n(C)c(=O)n3C)cc1", "> 10 µM"),
    ("COC1(C)Oc2cc(S(=O)(=O)Nc3ccc4c(c3)n(C)c(=O)n4C)ccc2O[C@]1(C)OC (stereo partly drawn)", "> 10 µM"),
]

Tell me the measured IC50 of "COc1cc2c(cc1NS(=O)(=O)c1ccc(Br)cc1C)n(C)c(=O)n2C" , please. 1.2 µM
